molecular target: Tyrosine-protein phosphatase non-receptor type 22 (Homo sapiens, UniProt Q9Y2R2); experiment: PubChem AID 2135
Sequence (Q9Y2R2 whole entry): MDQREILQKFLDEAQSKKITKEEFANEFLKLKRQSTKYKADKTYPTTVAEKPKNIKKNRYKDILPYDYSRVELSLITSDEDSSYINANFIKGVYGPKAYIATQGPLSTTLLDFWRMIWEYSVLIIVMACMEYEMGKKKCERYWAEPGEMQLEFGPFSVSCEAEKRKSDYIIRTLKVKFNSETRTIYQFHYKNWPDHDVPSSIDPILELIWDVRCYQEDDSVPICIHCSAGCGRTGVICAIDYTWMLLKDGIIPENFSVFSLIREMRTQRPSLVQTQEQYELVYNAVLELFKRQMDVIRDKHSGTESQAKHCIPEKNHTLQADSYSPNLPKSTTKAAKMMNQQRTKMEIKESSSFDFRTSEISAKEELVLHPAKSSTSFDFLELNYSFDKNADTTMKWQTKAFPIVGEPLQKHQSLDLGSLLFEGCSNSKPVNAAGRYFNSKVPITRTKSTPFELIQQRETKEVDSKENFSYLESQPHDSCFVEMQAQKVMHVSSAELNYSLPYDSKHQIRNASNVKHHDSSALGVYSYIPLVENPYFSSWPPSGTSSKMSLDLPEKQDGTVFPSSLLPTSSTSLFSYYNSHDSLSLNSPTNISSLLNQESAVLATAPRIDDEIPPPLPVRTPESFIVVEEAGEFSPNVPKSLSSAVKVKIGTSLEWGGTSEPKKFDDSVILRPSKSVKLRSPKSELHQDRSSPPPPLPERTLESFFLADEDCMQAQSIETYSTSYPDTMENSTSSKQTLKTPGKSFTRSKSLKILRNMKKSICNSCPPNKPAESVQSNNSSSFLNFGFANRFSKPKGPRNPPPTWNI
valueKind: IC50

* CCOc1ccc2nc(NC(=O)CSc3cc(O)c4c(C)c(C)sc4n3)sc2c1 | > 100 µM
